- Tested on: A. baumannii strain 5075 (AB5075)
- Protocol notes: Clarithromycin potentiation against AB5075 (CLR MIC in presence of adjuvant)
- Format: cell-based, Acinetobacter baumannii
- Assay context: adjuvant at 30 μM, AB5075
Observable: Clarithromycin (CLR) MIC (µg/mL)
Give bare numbers, in µg/mL.

Before answering, review these 2 worked examples.
Compound	Observable	Numeric result
Nc1nc(-c2ccc(NC(=O)Nc3ccc(-c4c[nH]c(N)n4)cc3)cc2)c[nH]1	Clarithromycin (CLR) MIC	0.125
Cc1cc(-c2c[nH]c(N)n2)ccc1NC(=O)Nc1ccc(-c2c[nH]c(N)n2)cc1C [Compound 14c]	Clarithromycin (CLR) MIC	32

Now turn to the next compound.
Entry Nc1nc(-c2ccc(NC(=O)Nc3ccc(-c4c[nH]c(N)n4)cc3F)c(F)c2)c[nH]1 [Compound 14a] , Clarithromycin (CLR) MIC reported as 4
